Data origin: patent US8871753B2

- tgt: Recombinant Human Anaplastic Lymphoma Kinase (Homo sapiens, UniProt Q9UM73)
- Construct: purchased Invitrogen, Carlsbad, Calif
- Sequence (Q9UM73 19-1620): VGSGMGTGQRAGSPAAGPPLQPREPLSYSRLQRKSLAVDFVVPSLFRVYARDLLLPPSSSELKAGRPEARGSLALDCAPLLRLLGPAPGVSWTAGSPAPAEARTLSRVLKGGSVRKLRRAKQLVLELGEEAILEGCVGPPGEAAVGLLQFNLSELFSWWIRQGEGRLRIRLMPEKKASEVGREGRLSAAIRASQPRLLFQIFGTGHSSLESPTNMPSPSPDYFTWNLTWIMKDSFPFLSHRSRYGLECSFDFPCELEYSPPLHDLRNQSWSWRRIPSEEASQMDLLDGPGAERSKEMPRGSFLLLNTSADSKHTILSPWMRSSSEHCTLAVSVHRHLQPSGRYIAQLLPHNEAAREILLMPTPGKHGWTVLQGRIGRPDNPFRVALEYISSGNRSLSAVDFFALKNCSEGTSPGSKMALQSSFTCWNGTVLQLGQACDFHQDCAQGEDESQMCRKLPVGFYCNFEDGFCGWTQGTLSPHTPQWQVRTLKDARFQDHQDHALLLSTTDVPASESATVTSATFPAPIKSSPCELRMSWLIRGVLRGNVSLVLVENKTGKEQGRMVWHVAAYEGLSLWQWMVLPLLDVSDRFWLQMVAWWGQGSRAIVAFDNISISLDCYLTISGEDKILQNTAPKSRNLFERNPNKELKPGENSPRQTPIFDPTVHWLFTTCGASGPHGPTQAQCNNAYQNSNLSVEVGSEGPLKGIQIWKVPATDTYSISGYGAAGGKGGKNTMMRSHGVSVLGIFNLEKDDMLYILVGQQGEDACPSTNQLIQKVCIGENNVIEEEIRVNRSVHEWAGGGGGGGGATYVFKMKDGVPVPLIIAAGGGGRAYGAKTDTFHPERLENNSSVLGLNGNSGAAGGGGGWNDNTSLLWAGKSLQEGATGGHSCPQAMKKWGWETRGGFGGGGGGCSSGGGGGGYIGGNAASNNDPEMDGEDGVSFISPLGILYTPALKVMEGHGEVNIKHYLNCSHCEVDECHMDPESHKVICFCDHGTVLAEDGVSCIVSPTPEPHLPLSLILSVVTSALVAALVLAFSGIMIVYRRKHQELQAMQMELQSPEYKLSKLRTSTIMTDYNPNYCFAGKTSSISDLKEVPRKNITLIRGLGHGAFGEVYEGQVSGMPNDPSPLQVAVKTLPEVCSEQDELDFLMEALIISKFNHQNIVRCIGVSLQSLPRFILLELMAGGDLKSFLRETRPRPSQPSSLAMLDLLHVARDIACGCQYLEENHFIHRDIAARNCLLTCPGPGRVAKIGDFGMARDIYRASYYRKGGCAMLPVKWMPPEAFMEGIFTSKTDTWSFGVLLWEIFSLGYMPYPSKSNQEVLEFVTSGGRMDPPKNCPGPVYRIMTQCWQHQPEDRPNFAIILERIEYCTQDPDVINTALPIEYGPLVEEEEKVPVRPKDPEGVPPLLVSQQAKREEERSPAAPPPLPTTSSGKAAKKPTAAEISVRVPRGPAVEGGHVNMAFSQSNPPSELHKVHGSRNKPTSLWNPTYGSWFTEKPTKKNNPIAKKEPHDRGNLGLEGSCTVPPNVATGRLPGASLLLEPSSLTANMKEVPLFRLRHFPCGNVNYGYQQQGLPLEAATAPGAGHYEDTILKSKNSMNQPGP
- assay.summary: ALK HTRF kinase assay
- Format: biochemical
- cond: compound at a concentration of 500 nM or 1 mM (not specified); cells shown as percentage
Where a name gives a salt, the structure may show the parent alone.
parameter: ALK % of inhibition at a concentration of 500 nM or 1 mM (%)
# unit: % | format: bare number

Recall and state the measured ALK % of inhibition at a concentration of 500 nM or 1 mM for O=C(Nc1ccc2cc1CCc1cccc(c1)Nc1ncc(Cl)c(n1)N2)Nc1ccccc1OC(F)F [Example B128, trifluoroacetate] . 32

Recall and state the measured ALK % of inhibition at a concentration of 500 nM or 1 mM for O=C(Nc1ccc(Cl)nc1)Nc1ccc2cc1CCc1cccc(c1)Nc1ncc(Cl)c(n1)N2 [Example B121, bis(trifluoroacetate)] . 39

Recall and state the measured ALK % of inhibition at a concentration of 500 nM or 1 mM for COc1ccc(N2CCN(C(=O)Nc3ccc4cc3CCc3cncc(c3)Nc3ncc(Cl)c(n3)N4)CC2)cc1 [Example B299, tris(trifluoroacetate)] . 74

Recall and state the measured ALK % of inhibition at a concentration of 500 nM or 1 mM for O=C(Nc1ccc2cc1CCc1cccc(c1)Nc1ncc(Cl)c(n1)N2)NC1CCCNC1 (centres unmarked) [Example B238, bis(trifluoroacetate)] . 15

Recall and state the measured ALK % of inhibition at a concentration of 500 nM or 1 mM for CC(C)(C)c1ccccc1NC(=O)Nc1ccc2cc1CCc1cccc(c1)Nc1ncc(Cl)c(n1)N2 [Example B110, trifluoroacetate] . 7.1

Recall and state the measured ALK % of inhibition at a concentration of 500 nM or 1 mM for CC(C)NC(=O)NCCNC(=O)Nc1ccc2cc1CCc1cccc(c1)Nc1ncc(Cl)c(n1)N2 [Example B188, trifluoroacetate] . 24

Recall and state the measured ALK % of inhibition at a concentration of 500 nM or 1 mM for `O=C(Nc1ccc2cc1CCc1cncc(c1)Nc1ncc(Cl)c(n1)N2)N1CCNCC1` . 38

###

- tgt: human JAK2 (a.a. 828-1132) (Homo sapiens, UniProt O60674)
- Construct: JAK2 (a.a. 828-1132); His tag (N); made in house; host or cells: insect cells (baculovirus)
- Sequence (O60674 828-1132): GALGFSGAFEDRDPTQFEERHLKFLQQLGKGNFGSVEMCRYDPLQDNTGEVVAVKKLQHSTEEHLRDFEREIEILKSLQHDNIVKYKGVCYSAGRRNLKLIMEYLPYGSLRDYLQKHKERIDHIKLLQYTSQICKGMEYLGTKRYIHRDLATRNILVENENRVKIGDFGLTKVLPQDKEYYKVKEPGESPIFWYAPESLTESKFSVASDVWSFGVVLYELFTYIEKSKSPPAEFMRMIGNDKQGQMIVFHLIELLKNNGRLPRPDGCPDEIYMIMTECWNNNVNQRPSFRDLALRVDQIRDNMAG
- assay.summary: In vitro JAK kinase assay (HTRF, phosphorylation of a biotinylated peptide), JAK2
- Format: biochemical
- cond: method AA1 (30 μM ATP) or AA2 (1000 μM ATP), not stated per value
Structures can show the parent of a compound that is named as a salt.
parameter: IC50 (µM)
# unit: µM | format: bare number

Recall and state the measured IC50 for O=C(CC1CCN(C(=O)Nc2ccccc2)CC1)Nc1ccc2cc1CCc1cccc(c1)Nc1ncc(Cl)c(n1)N2 [Example A58, trifluoroacetate] . 0.0011

Recall and state the measured IC50 for CCS(=O)(=O)N1CCC(CC(=O)Nc2ccc3cc2CCc2cccc(c2)Nc2ncc(Cl)c(n2)N3)CC1 [Example A83, trifluoroacetate] . 0.0025

Recall and state the measured IC50 for NCCC(=O)Nc1ccc2cc1CCc1cccc(c1)Nc1ncc(Cl)c(n1)N2 [Example A108, bis(trifluoroacetate)] . 0.032

Recall and state the measured IC50 for N#Cc1ccccc1S(=O)(=O)N1CCC(CC(=O)Nc2ccc3cc2CCc2cccc(c2)Nc2ncc(Cl)c(n2)N3)CC1 [Example A208, trifluoroacetate] . 0.041

Recall and state the measured IC50 for Cc1cc(C(=O)N2CCC(CC(=O)Nc3ccc4cc3CCc3cncc(c3)Nc3ncc(Cl)c(n3)N4)CC2)no1 [Example A101, bis(trifluoroacetate)] . 0.01

Continuing:
Recall and state the measured IC50 for O=C(CC1CCNC1)Nc1ccc2cc1CCc1cncc(c1)Nc1ncc(Cl)c(n1)N2 (stereo not drawn) [Example A105, tris(trifluoroacetate)] . 0.04

Recall and state the measured IC50 for Cc1ccc2cc1Nc1ncc(Cl)c(n1)Nc1cccc(c1)CC2 [Example A7, trifluoroacetate] . 0.032

###

- tgt: Recombinant Human Anaplastic Lymphoma Kinase (Homo sapiens)
- Construct: purchased Invitrogen, Carlsbad, Calif
- assay.summary: ALK HTRF kinase assay
- Assay type: biochemical
- cond: compound at 500 nM or 1 mM; 90 μM ATP
Where a name gives a salt, the structure may show the parent alone.
parameter: ALK % of inhibition at a concentration of 500 nM or 1 mM (%)
# unit: % | format: bare number

Some solved cases for reference:
Recall and state the measured ALK % of inhibition at a concentration of 500 nM or 1 mM for O=C(Nc1ccc2cc1CCc1cccc(c1)Nc1ncc(Cl)c(n1)N2)[C@@H]1CCN(C(=O)c2ccccc2)C1 [Example A52, trifluoroacetate] . 35

Recall and state the measured ALK % of inhibition at a concentration of 500 nM or 1 mM for O=C(Nc1ccc2cc1CCc1cccc(c1)Nc1ncc(Cl)c(n1)N2)C1CCCN(C(=O)c2ccccc2)C1 (stereo not drawn) [Example A48, trifluoroacetate] . 28

Recall and state the measured ALK % of inhibition at a concentration of 500 nM or 1 mM for N#Cc1ccccc1S(=O)(=O)N1CCC(CC(=O)Nc2ccc3cc2CCc2cncc(c2)Nc2ncc(Cl)c(n2)N3)CC1 [Example A198, bis(trifluoroacetate)] . 56

Pending molecule:
Recall and state the measured ALK % of inhibition at a concentration of 500 nM or 1 mM for O=C(CC1CCN(C(=O)c2ccccc2)CC1)Nc1ccc2cc1CCc1cccc(c1)Nc1ncc(Cl)c(n1)N2 [Example A56, trifluoroacetate] . 26

###

- tgt: human JAK1 (a.a. 837-1142) (Homo sapiens)
- Construct: human JAK1 (a.a. 837-1142); His tag (N); made in house; host or cells: insect cells (baculovirus)
- Sequence (P23458 849-1154): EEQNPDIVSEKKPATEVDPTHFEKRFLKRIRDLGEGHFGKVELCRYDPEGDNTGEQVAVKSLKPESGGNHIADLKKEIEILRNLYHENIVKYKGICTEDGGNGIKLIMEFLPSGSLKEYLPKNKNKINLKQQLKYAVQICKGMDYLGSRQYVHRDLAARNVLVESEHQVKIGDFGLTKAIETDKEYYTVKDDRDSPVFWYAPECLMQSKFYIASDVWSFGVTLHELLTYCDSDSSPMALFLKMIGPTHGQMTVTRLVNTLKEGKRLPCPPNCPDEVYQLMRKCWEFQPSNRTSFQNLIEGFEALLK
- assay.summary: In vitro JAK kinase assay (HTRF, phosphorylation of a biotinylated peptide), JAK1
- Type: biochemical
- cond: Table D1; read-out: JAK1 IC50
Where a name gives a salt, the structure may show the parent alone.
parameter: log10 of IC50 (log10 of the value in nM)
Note the log scale: values are log10 of IC50 expressed in nM.

Some solved cases for reference:
Recall and state the measured log10 of IC50 for O=C(C[C@H]1CCN(C(=O)c2cc[nH]n2)C1)Nc1ccc2cc1CCc1cncc(c1)Nc1ncc(Cl)c(n1)N2 [Example D130, bis(trifluoroacetate)] . 1.36

Recall and state the measured log10 of IC50 for Cc1cc(C(=O)N2CC(CC(=O)Nc3ccc4cc3CCc3cncc(c3)Nc3ncc(Cl)c(n3)N4)C2)no1 [Example D143, bis(trifluoroacetate)] . 1.41

Recall and state the measured log10 of IC50 for Cn1c(NC(=O)c2cc3cc(c2)OCCSc2cccc(c2)Nc2nc(ncc2Cl)N3)nc2ccccc21 [Example D55, bis(trifluoroacetate)] . 1.75

Recall and state the measured log10 of IC50 for O=C(c1cnccn1)N1CCC(CCOc2ccc3cc2CCc2cncc(c2)Nc2ncc(Cl)c(n2)N3)CC1 [Example D177, tris(trifluoroacetate)] . 2.18

Recall and state the measured log10 of IC50 for CC1(C)Cc2cccc(NC(=O)N3CCC(CCOc4ccc5cc4CCc4cncc(c4)Nc4ncc(Cl)c(n4)N5)CC3)c2O1 [Example D175, bis(trifluoroacetate)] . 2.18

Continuing:
Recall and state the measured log10 of IC50 for O=C(Nc1cc2cc(c1)OCCSc1cccc(c1)Nc1nc(ncc1Cl)N2)c1ccco1 [Example D62, trifluoroacetate] . 0.86

Recall and state the measured log10 of IC50 for O=C(C[C@@H]1CCCN(c2nc3ccccc3s2)C1)Nc1ccc2cc1CCc1cncc(c1)Nc1ncc(Cl)c(n1)N2 [Example D211, tris(trifluoroacetate)] . 0.62

Recall and state the measured log10 of IC50 for Clc1cnc2nc1Nc1cccc(c1)OCCc1cc(cc(-c3cccnc3)c1)N2 [Example D26, bis(trifluoroacetate)] . 0.08

Recall and state the measured log10 of IC50 for c1cc2cc(c1)Nc1ccnc(n1)Nc1cncc(c1)CC2 [Example D217, bis(trifluoroacetate)] . 1.72

Recall and state the measured log10 of IC50 for O=C(COc1ccc2cc1CCc1cncc(c1)Nc1ncc(Cl)c(n1)N2)N1CCN(c2ncccn2)CC1 [Example D233, tris(trifluoroacetate)] . 2.00

Recall and state the measured log10 of IC50 for O=C(C[C@H]1CCN(C(=O)Nc2cccnc2)C1)Nc1ccc2cc1CCc1cncc(c1)Nc1ncc(Cl)c(n1)N2 [Example D101, tris(trifluoroacetate)] . 1.15

Recall and state the measured log10 of IC50 for Clc1cnc2nc1Nc1cccc(c1)NCCCc1cccc(c1)N2 [Example D75, bis(trifluoroacetate)] . 1.70

Recall and state the measured log10 of IC50 for O=C(C[C@@H]1CCN(C(=O)Nc2cccnc2)C1)Nc1ccc2cc1CCc1cncc(c1)Nc1ncc(Cl)c(n1)N2 [Example D117, tris(trifluoroacetate)] . 1.59

###

Recorded pIC50 values for a group of compounds are listed next.
- tgt: Recombinant Human Anaplastic Lymphoma Kinase (Homo sapiens)
- Construct: purchased Invitrogen, Carlsbad, Calif
- assay.summary: ALK HTRF kinase assay
- Assay type: biochemical
- cond: Table B1; cells without percent sign
Where a name gives a salt, the structure may show the parent alone.
Please treat pIC50 as minus the base-10 logarithm of the molar concentration.

Some solved cases for reference:
Recall and state the measured pIC50 for O=C(Nc1ccc2cc1CCc1cccc(c1)Nc1ncc(Cl)c(n1)N2)NC1CCCC1 [Example B88, trifluoroacetate] . 6.03

Recall and state the measured pIC50 for O=C(Nc1ccc2cc1CCc1cccc(c1)Nc1ncc(Cl)c(n1)N2)C1CCC1 [Example B57, hydrochloride] . 5.66

Recall and state the measured pIC50 for COCC(=O)Nc1ccc2cc1CCc1cccc(c1)Nc1ncc(Cl)c(n1)N2 [Example B28, trifluoroacetate] . 5.74

Continuing:
Recall and state the measured pIC50 for CCC(=O)Nc1ccc2cc1CCc1cccc(c1)Nc1ncc(Cl)c(n1)N2 [Example B54, trifluoroacetate] . 6.01

Recall and state the measured pIC50 for O=C(Nc1ccc2cc1CCc1cccc(c1)Nc1ncc(Cl)c(n1)N2)c1ccccc1 [Example B29, trifluoroacetate] . 7.02

Recall and state the measured pIC50 for O=C(Nc1ccc2cc1CCc1cccc(c1)Nc1ncc(Cl)c(n1)N2)c1ccoc1 [Example B59, trifluoroacetate] . 6.15

Recall and state the measured pIC50 for Cc1ccccc1S(=O)(=O)Nc1ccc2cc1CCc1cccc(c1)Nc1ncc(Cl)c(n1)N2 [Example B149, trifluoroacetate] . 6.46

Recall and state the measured pIC50 for CCCS(=O)(=O)Nc1ccc2cc1CCc1cccc(c1)Nc1ncc(Cl)c(n1)N2 [Example B142, trifluoroacetate] . 6.00
